# Test system: Vero E6 infected with SARS-CoV-2
# protocol description: inhibition of SARS-CoV-2 cytopathic effect; higher = more antiviral protection, active = above 15
# condition label: 100 nM; 48 h
observation type: inhibition of SARS-CoV-2 cytopathic effect

1. Nc1nccc(-c2ccc3noc(-c4ccc(Cl)cc4)c3c2)n1 : 3.66% (inactive)
2. Cc1cn(C[C@H](N)C(=O)O)c(=O)n(Cc2ccsc2C(=O)O)c1=O : -1.21% (inactive)
3. C[C@@H](O)[C@H]1C(=O)N2C(C(=O)O)=C(S[C@@H]3CN[C@H](CNS(N)(=O)=O)C3)[C@H](C)[C@H]12 : -2.53% (inactive)
4. Cc1cc(C)cc(C(=O)N(C)[C@H](Cc2ccc(-c3ccccc3)cc2)C(=O)N[C@@H](Cc2c[nH]c3ccccc23)C(=O)O)c1 : 5.42% (inactive)
5. CN(C)C(=O)Oc1ccc[n+](C)c1 : 0.13% (inactive)
6. CC(C)(O)CC(=O)NCCn1ccc2ncnc(Nc3ccc(Oc4cccc(C(F)(F)F)c4)c(Cl)c3)c21 : 3.51% (inactive)
7. N#Cc1cccc(C(=O)Nc2cc(-c3ccccc3)nn2-c2ccccc2)c1 : 3.47% (inactive)
8. CCC(CC)(CC(=O)Nc1cccc(/C=C/c2nc(C3CCC3)cs2)c1)C(=O)O : 0.24% (inactive)
9. C[S+]([O-])c1ccc(-c2nc(-c3ccc(F)cc3)c(-c3ccncc3)[nH]2)cc1 (centres undefined) : -1.08% (inactive)

###

Listed next: entries and their corresponding inhibition of SARS-CoV-2 cytopathic effect.
# Test system: Vero E6 infected with SARS-CoV-2
# protocol description: inhibition of SARS-CoV-2 cytopathic effect; higher = more antiviral protection, active = above 15
# condition label: 8.33 nM; 48 h
observation type: inhibition of SARS-CoV-2 cytopathic effect (%)

1. C(=C\c1ccccc1)/CN1CCN(CCOC(c2ccccc2)c2ccccc2)CC1 : 0.59
2. CC(C)(C)C(=O)NCCCC(=O)O [pivagabine] : -1.15
3. CCCN(C/C=C/I)[C@H]1CCc2ccc(O)cc2C1 [7-hydroxy-PIPAT] : 0.14
4. C#Cc1cccc(Nc2ncnc3cc(OCCOC)c(OCCO)cc23)c1 : -0.66
5. Cc1cccc(C(=O)O)c1O [hydroxytoluic-acid] : -7.41
6. CCN(CC)Cc1cc(Nc2ccnc3cc(Cl)ccc23)ccc1O [amodiaquine] : 3.97
7. Cc1c(Cl)cccc1Nc1ccccc1C(=O)O [tolfenamic-acid] : -0.57
8. COc1ccccc1N1CCN(CCCCN2C(=O)c3ccccc3C2=O)CC1 : -1.04
9. Nc1ccc(S(=O)(=O)Nc2ccc(Cl)nn2)cc1 [sulfachlorpyridazine] : -0.21
10. O=C(O)c1ccc(O)c2ncccc12 : 1.32
11. CCCCCCCCCCCCCCCC(=O)C(F)(F)F : 0.3
12. NCC(=O)N1C[C@H](NC(=O)c2ccccc2)C[C@H]1C(=O)O [danegaptide] : -0.68
13. Cc1cc(C(=O)N2Cc3cnn(C)c3Nc3ccccc32)ccc1CNC(=O)N1CCC[C@H]1C(=S)N1CCCN(C)CC1 : -1.38
14. CC(=O)Nc1ccccc1 [acetanilide] : 2.8
15. C[C@H](Cc1ccc(O)c(O)c1)[C@@H](C)Cc1ccc(O)c(O)c1 [masoprocol] : 1.69
16. COc1cc(N2CCN(C)CC2)ccc1Nc1nccc(-c2cn(C)c3cnccc23)n1 : -0.24
17. COc1ccc(Oc2c(Cl)cnn(C3c4ccccc4-c4ccccc43)c2=O)cc1 : -3.66
18. Nc1ncnc2c1ncn2[C@@H]1O[C@H](CO)[C@@H](O)[C@H]1O [adenosine] : 3.5
19. CCC(=O)O[C@@](Cc1ccccc1)(c1ccccc1)[C@@H](C)CN(C)C [levopropoxyphene] : 2.53
20. O=C(Nc1ccncc1)c1cc([N+](=O)[O-])ccc1Cl : 1.74
21. CNCCCCOc1ccccc1Cc1ccccc1 [bifemelane] : 0.99
22. CNC(=O)c1c(I)c(NC(C)=O)c(I)c(C(=O)O)c1I [iothalamic-acid-d3] : -2.14
23. CCOc1ccc(NC(C)=O)cc1 [phenacetin] : -3.1
24. C[C@H](Oc1cc(-c2cnn(C3CCNCC3)c2)cnc1N)c1c(Cl)ccc(F)c1Cl [crizotinib-(S)] : -0.2
25. OC[C@H]1NC[C@@H](O)[C@@H](O)[C@@H]1O [1-deoxymannojirimycin] : 0.14
26. CCN1CCCC1CNC(=O)c1cc(S(=O)(=O)CC)c(N)cc1OC (centres undefined) [amisulpride] : -1.75
27. C[C@H]1NCc2cc(-c3ccc4c(=O)c(C(=O)O)cn(C5CC5)c4c3OC(F)F)ccc21 [garenoxacin] : -1.9
28. CC(O)CC(=O)O (stereo not drawn) [beta-hydroxybutyrate] : 2.5
29. NC(=O)c1ccc[n+]([C@@H]2O[C@H](COP(=O)([O-])OP(=O)(O)OC[C@H]3O[C@@H](n4cnc5c(N)ncnc54)[C@H](O)[C@@H]3O)[C@@H](O)[C@H]2O)c1 [nadide] : -2.65
30. COc1cc(F)c(C(C)C)cc1-c1ccc(C(F)(F)F)cc1CN1C(=O)O[C@H](c2cc(C(F)(F)F)cc(C(F)(F)F)c2)[C@@H]1C [anacetrapib] : 0.48
31. COc1cc2c(cc1OC)-c1cc3ccc(OC)c(OC)c3c[n+]1CC2 [palmatine-chloride] : 0.72
32. NS(=O)(=O)c1ccc(NC(=O)Nc2ccc(F)cc2)cc1 : -1.24
33. Cc1cccc(/C=N/Nc2cc(N3CCOCC3)nc(OCCc3ccccn3)n2)c1 : 1.56
34. Cc1ccc(NCCCc2ccccc2)c(N)c1 [NFKB-activation-inhibitor-II] : -0.96
35. CN1CCN(c2ccc3[nH]c(-c4ccc5[nH]c(-c6ccc(O)cc6)nc5c4)nc3c2)CC1 [pibenzimol] : -1.08
36. NC(CO)C(=O)NNCc1ccc(O)c(O)c1O (centres undefined) [benserazide] : 3.19
37. CC/C(=C(\c1ccccc1)c1ccc(OCCN(C)C)cc1)c1ccccc1 [tamoxifen] : 1.81
38. NCC(O)c1ccc(O)cc1 (centres undefined) [octopamine] : -1.96
39. Oc1ccc2c3c1O[C@H]1c4[nH]c5ccccc5c4C[C@@]4(O)[C@@H](C2)N(CC2CC2)CC[C@]314 [naltrindole] : 3.59
